Source listed as PubChem BioAssay (NCI).

# Tested on: MDA-MB-468 breast
# procedure.details: NCI-60 one-dose screen, 48 h (100 = growth as untreated, 0 = no growth, -100 = all killed)
# experimental.conditions: 10 µM unless noted
This is part of a sample that, as a whole, favours compounds with a hit. Of some 83,000 tested, about 20% had one in any assay.
reported.metric: growth (%)
Form entry: value (%) — number only.

# get_value(readout='growth', item= CCCCN[C@H]1CC[C@@]2(C)[C@@H](CC[C@@]3(C)[C@H]2[C@H](O)C[C@H]2/C(=C(\CCC=C(C)C)C(=O)OC)[C@@H](OC(C)=O)C[C@@]23C)[C@@H]1C )
88.9

Quick one: CC(=O)OCCO
98.6

Now the same for CCN1C(=S)N(CC)C2C1N=C(SC)N2/N=C/C=C/c1ccccc1[N+](=O)[O-] (centres undefined)
99.8

Further, for CC(=O)Nc1ccc(Sc2ccc(NC(C)=O)cc2)cc1 ?
100

Check COc1ccc(-c2cc(-c3cn(-c4cccc(Cl)c4)nc3-c3ccc(OC)cc3)[nH]c(=S)n2)cc1 too.
39

Now give it for CCOC(=O)C/C(=N\Nc1cc(=O)[nH]c2ccc(OC)cc12)C(=O)OCC too.
89.1

Moving on to CCOc1cc(F)c([N+](=O)[O-])cc1[N+](=O)[O-]
-35.2

Next up: Cc1ccc(Nc2nnc(-c3ccc(Cl)cc3)o2)c(C)c1
75.4

Next record, please: O=[N+]([O-])c1ccc(Oc2cccc(C(F)(F)F)c2)c([N+](=O)[O-])c1
-8.95

Now give it for Nc1nc(Br)nc2c1ncn2C1CC(O)C(CO)O1 (centres undefined) too.
100

C=C1C(=O)O[C@H]2[C@H]1CC/C(COC(=O)CCCC(=O)OC/C1=C/CC[C@@]3(C)O[C@H]3[C@H]3OC(=O)C(=C)[C@@H]3CC1)=C\CC[C@@]1(C)O[C@@H]21 ?
-19.1

Now the same for Cc1ccc(C(=O)Nc2ccc(CNCCN3CCNCC3)c(C(F)(F)F)c2)cc1C#Cc1cnc2cccnn12
-83

Let us now turn to OCC12CCCC(CO)(COC1)C2O (centres undefined)
109

Record: COc1cc(OC)c(NC(=O)c2cc3ccccc3cc2O)cc1Cl
75.7

Moving on to Cc1cc(/C=C\c2ccc3ccccc3[n+]2C)c(O)c2ncccc12
-27

Lookup COc1ccc(Sc2[nH]c(C(C)=O)c3ccccc23)cc1
-6.04

Same read-out for N#Cc1c(-c2ccc(Cl)cc2)nc(N=Nc2c(O)[nH]c3ccc(Cl)cc23)nc1N1CCOCC1 ?
90.8

Repeat with O=[N+]([O-])c1ccc(N/N=C/c2cccc3ccccc23)nc1
77.2

And CCC[S@](=O)c1ccc2nc(NC(=O)OC)[nH]c2c1 ?
94.1

Another: O=C(/C=C/c1ccc(Cl)cc1)c1ccccc1
89.7

Check CC(C)(C)c1ccc(S(=O)(=O)N[C@H]2CC[C@H]3[C@@H]4CCc5cc(O)c([N+](=O)[O-])cc5[C@H]4CC[C@]23C)cc1 too.
99.9

And the next one, COc1ccc2sc(N(Cc3cccnc3)C(=O)c3ccc(C#N)cc3)nc2c1 ?
73

Similarly, CCOC(=O)c1sc(N)c(C(=O)OCC)c1C ?
59.4

Now consider O=C(Nc1nc(-c2ccc(Cl)cc2)cs1)c1cc(-c2ccc(Br)cc2)nc2ccc(Cl)cc12 .
98.7

And for O=C1[C@H]2Cc3c([nH]c4ccccc34)[C@H](c3ccc(Br)cc3)N2C(=O)CN1C1CCN(CC2CCCCC2)CC1 ?
80.1

Request: CCOC(=O)CC1C(COC(=O)NC)OC(n2cnc3c(NC(=O)Nc4ccccc4)ncnc32)C1O[Si](C)(C)C(C)(C)C (centres undefined)
61.9

Lookup Cc1ccc(C(=O)Nc2nc3c(s2)CN(Cc2ccccc2)CC3)cn1
67.1

Then CCN1C(=O)N(CC)C2Nn3c(s/c(=C4\C(=O)N(C)c5ccccc54)c3=O)=NC21 (centres undefined) ?
12.2

Same lookup for CCN(CC)CC(=O)Nc1c(C)cc(C(=O)NN)cc1C , please.
107

One more compound: c1ccc2c(c1)Oc1cccnc1-n1nccc1-2
94.7

What about Oc1ccc(CSc2nnc(-c3cnccn3)n2-c2ccccc2)c2cccnc12 ?
5.53

For O=C1Nc2ccccc2[C@]12CC(c1ccccc1)=NN2 then?
56.5

N=C(N)c1ccc(-c2ccc(-c3ccccc3)s2)s1 ?
-94.5

Try the compound Cc1cc2cc3c(=O)[nH]c(=O)cc-3n(CC(O)C(O)C(O)CO)c2cc1C (centres undefined)
122

Then CCc1nc2cc(/C=C/C(=O)NO)ccc2c(=O)n1CCc1ccc(OC)cc1 ?
14.1

Cool, now COc1ccc(-c2cc(-c3ccc(Cl)cc3)c(C#N)c(=O)n2CCCCCC(=O)Nc2ccccc2N)cc1
53.1

What do we get for C=CCn1c(SCC(=O)Nc2ccc(C(=O)/C=C/c3ccc(Cl)cc3)cc2)nnc1-c1cc(-c2ccc(S(N)(=O)=O)cc2)nc2ccccc12 ?
90.2

Another compound: Cc1nn(-c2nc3ccccc3[nH]2)c2c1C(c1ccc(OCc3ccc(F)cc3)cc1)CC(=O)N2 (centres undefined)
65.3

Same for CC(=O)c1ccc(NC(=O)COc2ccc(C3SCC(=O)N3c3ccc(Br)cc3)cc2)cc1 (centres undefined)
92
